Where do the numbers come from? From ChEMBL document CHEMBL5614378.

# testProtocol: Cytotoxicity against human Calu-3 cells
# Type: toxicity, cell-based
quantityName: CC50 (nM)

> print(dat)
                                   molecule  quantityname  measurednumber
1  CN(C)C(=O)COC(=O)Cc1ccc(OC(=O)c2ccc(NC(=N)N)cc2)cc1 [CAMOSTAT]          CC50             230
2  CC(C)c1cc(=O)oc2ccc(OC(=O)c3ccc(NC(=N)N)cc3)cc12          CC50             450

---

# tgt: UniProtKB P0DTD1
# testProtocol: Inhibition of SARS-CoV-2 recombinant RdRp at 50 ug/ml preincubated with enzyme for 15 mins followed by single stranded polyribonucleotide template and NTPs addition and measured after 2 hrs by fluorescence spectrometric analysis relative to control
# details: dose 50.0 µg/ml, time 135.0 min
# key: entry, value: inhibition
quantityName: inhibition

> print(dat)
                                  smilesstr               tgt  quantityname  result
1  CC(C)c1cc(=O)oc2ccc(OC(=O)c3ccc(NC(=N)N)cc3)cc12  UniProtKB P0DTD1    inhibition     89%
2  N#C[C@@]1(c2ccc3c(NC(=O)c4ccc(Nc5ncccn5)cc4)ncnn23)O[C@H](CO)[C@@H](O)[C@H]1O  UniProtKB P0DTD1    inhibition     77%
3  CCC(CC)COC(=O)[C@H](C)N[P@](=O)(OC[C@H]1O[C@@](C#N)(c2ccc3c(N)ncnn23)[C@H](O)[C@@H]1O)Oc1ccccc1  UniProtKB P0DTD1    inhibition     73%
4  N#C[C@@]1(c2ccc3c(NC(=O)c4ccc(NC(=N)N)cc4)ncnn23)O[C@H](CO)[C@@H](O)[C@H]1O  UniProtKB P0DTD1    inhibition   91.5%
